Target: α1b-AR (Homo sapiens)
Construct: expressed in transfected cells; host or cells: COS cells (pcDNA3 vector, DEAE-dextran transient transfection); membrane preparation
Sequence (P35368 1-520): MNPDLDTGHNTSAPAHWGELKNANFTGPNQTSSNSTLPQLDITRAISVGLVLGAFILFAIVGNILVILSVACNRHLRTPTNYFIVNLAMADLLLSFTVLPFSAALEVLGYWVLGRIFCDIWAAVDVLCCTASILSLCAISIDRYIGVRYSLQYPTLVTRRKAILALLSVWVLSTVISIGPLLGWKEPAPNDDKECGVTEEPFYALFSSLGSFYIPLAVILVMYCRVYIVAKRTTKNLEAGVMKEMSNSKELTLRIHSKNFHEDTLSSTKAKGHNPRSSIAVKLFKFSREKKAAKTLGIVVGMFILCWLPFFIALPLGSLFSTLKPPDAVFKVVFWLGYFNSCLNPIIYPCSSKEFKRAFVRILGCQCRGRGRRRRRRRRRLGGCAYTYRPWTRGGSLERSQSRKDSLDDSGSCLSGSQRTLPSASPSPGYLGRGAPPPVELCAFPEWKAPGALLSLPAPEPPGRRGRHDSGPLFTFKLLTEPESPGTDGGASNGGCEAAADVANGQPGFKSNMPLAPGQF
Assay: radioligand ([125I]-HEAT) receptor binding assay, COS cell membranes, α1b-AR
Settings: Tables A-J; [125I]-HEAT 50 pM, COS membranes; read-out: α1b IC50
IC50 for assorted compounds
Number in µM, nothing else.

// solved cases for IC50 follow
>>> measured_number("CC(C)Oc1ccccc1N1CCN(Cc2cc(CN3CCCCC3=O)cs2)CC1 [compound 55]")
0.768
>>> measured_number("CC(C)Oc1ccccc1N1CCN(Cc2ncc(CN3CCCC3=O)s2)CC1 [Compound 17]")
3.47

// moving on: another record for IC50
Bench note: what IC50 did COc1ccccc1N1CCN(Cc2cccc(CN3CCCCCC3=O)n2)CC1 [compound 42] show?
1.42

* * *

Biological target: α1b-AR (Homo sapiens, UniProt P35368)
Construct: expressed in transfected cells; host or cells: COS cells (pcDNA3 vector, DEAE-dextran transient transfection); membrane preparation
Sequence (P35368 1-520): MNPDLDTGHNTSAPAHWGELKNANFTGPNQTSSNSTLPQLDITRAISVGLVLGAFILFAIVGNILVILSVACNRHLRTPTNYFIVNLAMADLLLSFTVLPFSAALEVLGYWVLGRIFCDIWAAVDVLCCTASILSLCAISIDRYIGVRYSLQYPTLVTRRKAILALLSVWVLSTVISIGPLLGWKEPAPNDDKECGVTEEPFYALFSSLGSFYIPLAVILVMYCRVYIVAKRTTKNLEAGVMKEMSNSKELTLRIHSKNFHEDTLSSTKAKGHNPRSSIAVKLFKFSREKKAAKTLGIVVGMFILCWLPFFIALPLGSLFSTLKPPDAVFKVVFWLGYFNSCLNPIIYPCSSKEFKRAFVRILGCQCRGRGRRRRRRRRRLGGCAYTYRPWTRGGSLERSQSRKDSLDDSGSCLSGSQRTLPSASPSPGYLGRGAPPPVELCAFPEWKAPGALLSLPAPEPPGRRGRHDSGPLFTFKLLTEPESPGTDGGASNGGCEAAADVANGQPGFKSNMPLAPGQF
Assay: radioligand ([125I]-HEAT) receptor binding assay, COS cell membranes, α1b-AR
Settings: Tables A-J; [125I]-HEAT 50 pM, COS membranes; read-out: α1b IC50
MEASUREMENT LABEL: pIC50
pIC50 here: minus log base 10 of the concentration, concentration in moles per litre.

// solved cases for pIC50 follow
>>> measured_number("COc1ccccc1N1CCN(Cc2cccc(CN3CCCCCCC3=O)n2)CC1")
5.40
>>> measured_number("O=C1CCCN1Cc1cc(CN2CCN(c3ccccc3Oc3ccccc3)CC2)on1")
5.36
>>> measured_number("CC(C)Oc1ccccc1N1CCN(Cc2cccc(CN3C(=O)CCC3=O)n2)CC1")
5.76
>>> measured_number("CC(C)Oc1ccccc1N1CCN(Cc2cc(CN3CCCCCC3=O)cs2)CC1")
5.91
>>> measured_number("CC(C)Oc1ccccc1N1CCN(Cc2cccc(CN3C(=O)CCCC3=O)n2)CC1")
7.02

Bench note: what pIC50 did CC(C)Oc1ccccc1N1CCN(Cc2cc(CN3CCCCC3=O)n[nH]2)CC1 show?
5.41

What would you report for COc1ccccc1N1CCN(Cc2cccc(CN3CCC3=O)n2)CC1 ?
5.50

What would you report for CC(C)Oc1ccccc1N1CCN(Cc2ncc(CN3CCCCC3=O)s2)CC1 ?
5.07

What would you report for CC(C)Oc1ccccc1N1CCN(Cc2cccc(CN3C(=O)CCCC3c3ccccc3)n2)CC1 (stereo not drawn) ?
5.48

* * *

Recorded below: IC50, system α1d-AR (Homo sapiens).

// solved cases for IC50 follow
>>> result("CC(C)Oc1ccccc1N1CCN(Cc2cc(CN3CCCCC3=O)n[nH]2)CC1")
"177 nM"
>>> result("COc1ccccc1N1CCN(Cc2cccc(CN3CCCCCCC3=O)n2)CC1")
"577 nM"
>>> result("CC(C)Oc1ccccc1N1CCN(Cc2cccc(CN3C(=O)CCC3=O)n2)CC1")
"174 nM"
>>> result("CC(C)Oc1ccccc1N1CCN(Cc2cc(CN3CCCCC3=O)cs2)CC1")
"185 nM"
>>> result("CC(C)Oc1ccccc1N1CCN(C/C=C/C(=O)CN2CCCCC2=O)CC1")
"215 nM"

Bench note: what IC50 did COc1ccccc1N1CCN(Cc2cccc(CN3CCC3=O)n2)CC1 show?
1680 nM

What would you report for CC(C)Oc1ccccc1N1CCN(Cc2cccc(CN3C(=O)CCCC3=O)n2)CC1 ?
197 nM

What would you report for CC(C)Oc1ccccc1N1CCN(Cc2cc(CN3CCCCC3=O)nc(N)n2)CC1 ?
> 10000 nM

What would you report for CC(C)Oc1ccccc1N1CCN(CC2=NOC(CN3CCCCC3=O)C2)CC1 (stereo not drawn) ?
1520 nM

* * *

IC50 for assorted compounds
molecular target: α1a-AR (Homo sapiens); construct: expressed in transfected cells; host or cells: COS cells (pcDNA3 vector, DEAE-dextran transient transfection); membrane preparation; assay: radioligand ([125I]-HEAT) receptor binding assay, COS cell membranes, α1a-AR; settings: Tables A-J; [125I]-HEAT 50 pM, COS membranes; read-out: α1a IC50
Sequence (P35348 whole entry): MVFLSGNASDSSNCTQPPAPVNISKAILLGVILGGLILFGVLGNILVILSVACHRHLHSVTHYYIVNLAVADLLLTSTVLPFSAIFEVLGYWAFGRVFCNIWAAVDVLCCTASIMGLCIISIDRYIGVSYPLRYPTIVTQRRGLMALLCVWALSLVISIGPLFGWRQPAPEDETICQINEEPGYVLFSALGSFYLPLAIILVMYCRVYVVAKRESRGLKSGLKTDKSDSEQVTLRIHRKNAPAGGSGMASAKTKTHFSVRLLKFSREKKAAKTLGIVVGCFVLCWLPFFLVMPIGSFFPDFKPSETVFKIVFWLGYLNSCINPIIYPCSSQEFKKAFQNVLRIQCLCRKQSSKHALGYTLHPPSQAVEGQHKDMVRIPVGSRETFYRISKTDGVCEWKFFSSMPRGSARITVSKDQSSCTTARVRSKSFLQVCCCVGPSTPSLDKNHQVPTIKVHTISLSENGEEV
Number in nM, nothing else.

>>> measured_number("CC(C)Oc1ccccc1N1CCN(Cc2ncc(CN3CCCC3=O)s2)CC1")
2.5
>>> measured_number("CC(C)Oc1ccccc1N1CCN(Cc2cc(CN3CCCCC3=O)n[nH]2)CC1")
2.1

Bench note: what IC50 did COc1ccccc1N1CCN(Cc2cccc(CN3CCCCC3=O)n2)CC1 show?
1730

What would you report for COc1ccccc1N1CCN(Cc2ccc(CN3CCCCC3CO)s2)CC1 (stereo not drawn) ?
838

What would you report for COc1ccccc1N1CCN(Cc2cccc(CN3CCC3=O)n2)CC1 ?
7630

What would you report for COc1ccccc1N1CCN(Cc2ccc(CN3CCCC3=O)s2)CC1 ?
80

What would you report for O=C1CCCN1Cc1cc(CN2CCN(c3ccccc3Oc3ccccc3)CC2)on1 ?
30

What would you report for CC(C)Oc1ccccc1N1CCN(Cc2cccc(CN3C(=O)CCCC3=O)n2)CC1 ?
98

* * *

Target: α1b-AR (Homo sapiens, UniProt P35368)
Construct: expressed in transfected cells; host or cells: COS cells (pcDNA3 vector, DEAE-dextran transient transfection); membrane preparation
Assay: radioligand ([125I]-HEAT) receptor binding assay, COS cell membranes, α1b-AR
Conditions: Tables A-J; [125I]-HEAT 50 pM, COS membranes; read-out: α1b IC50
Protocol: The first assay tested the ability of compounds of Formula I to bind to membrane bound receptors α1a-AR, α1b-AR and α1d-AR. The DNA sequences of the three cloned human α1-AR subtypes have been published. […] The three α1-AR subtypes (a, b, d) were transfected into COS cells using a standard DEAE-dextran procedure with a chloroquine shock. […] The protein concentration was determined following membrane solubilization with TritonX-100. […]
pIC50: −log10 of the molar value.
MEASUREMENT LABEL: pIC50

// solved cases for pIC50 follow
>>> result("CC(C)Oc1ccccc1N1CCN(Cc2cc(CN3CCCC3=O)no2)CC1")
"< 5.22"
>>> result("O=C1CCCCCN1Cc1cc(CN2CCN(c3ccccc3Oc3ccccc3)CC2)on1")
"< 5.00"
>>> result("CC(C)Oc1ccccc1N1CCN(Cc2nc(CN3CCCCC3=O)co2)CC1")
"< 5.00"

// moving on: another record for pIC50
Bench note: what pIC50 did COc1ccccc1N1CCN(Cc2ccc(CN3CCCCC3=O)s2)CC1 show?
< 5.00

* * *

IC50 for assorted molecules
target: α1b-AR (Homo sapiens, UniProt P35368); construct: expressed in transfected cells; host or cells: COS cells (pcDNA3 vector, DEAE-dextran transient transfection); membrane preparation; test: radioligand ([125I]-HEAT) receptor binding assay, COS cell membranes, α1b-AR; conditions: Tables A-J; [125I]-HEAT 50 pM, COS membranes; read-out: α1b IC50

// solved cases for IC50 follow
>>> result("COc1ccccc1N1CCN(Cc2ccc(CN3CCCC3=O)s2)CC1")
"> 10 µM"
>>> result("COc1ccccc1N1CCN(Cc2ccc(CN3CCCCC3CO)s2)CC1 (stereo not drawn)")
"> 5.14 µM"

Bench note: what IC50 did CC(C)Oc1ccccc1N1CCN(CC2=NOC(CN3CCCCC3=O)C2)CC1 (stereo not drawn) show?
> 10 µM

What would you report for COc1ccccc1N1CCN(Cc2ccc(CN3CCCCCC3=O)s2)CC1 ?
> 10 µM

What would you report for CC(C)Oc1ccccc1N1CCN(C/C=C/C(=O)CN2CCCCC2=O)CC1 ?
> 10 µM

What would you report for CC(C)Oc1ccccc1N1CCN(Cc2cc(CN3CCCCC3=O)nc(N)n2)CC1 ?
> 10 µM

What would you report for COc1ccccc1N1CCN(Cc2cccc(CN3CCCC3=O)n2)CC1 ?
2.64 µM

What would you report for CC(C)Oc1ccccc1N1CCN(Cc2cc(CN3CCCC3=O)cs2)CC1 ?
0.62 µM

What would you report for COc1ccccc1N1CCN(Cc2cccc(CN3CCCCC3=O)n2)CC1 ?
3.02 µM
